target: Acetylcholinesterase (Homo sapiens, UniProt P22303)
Sequence (P22303 whole entry): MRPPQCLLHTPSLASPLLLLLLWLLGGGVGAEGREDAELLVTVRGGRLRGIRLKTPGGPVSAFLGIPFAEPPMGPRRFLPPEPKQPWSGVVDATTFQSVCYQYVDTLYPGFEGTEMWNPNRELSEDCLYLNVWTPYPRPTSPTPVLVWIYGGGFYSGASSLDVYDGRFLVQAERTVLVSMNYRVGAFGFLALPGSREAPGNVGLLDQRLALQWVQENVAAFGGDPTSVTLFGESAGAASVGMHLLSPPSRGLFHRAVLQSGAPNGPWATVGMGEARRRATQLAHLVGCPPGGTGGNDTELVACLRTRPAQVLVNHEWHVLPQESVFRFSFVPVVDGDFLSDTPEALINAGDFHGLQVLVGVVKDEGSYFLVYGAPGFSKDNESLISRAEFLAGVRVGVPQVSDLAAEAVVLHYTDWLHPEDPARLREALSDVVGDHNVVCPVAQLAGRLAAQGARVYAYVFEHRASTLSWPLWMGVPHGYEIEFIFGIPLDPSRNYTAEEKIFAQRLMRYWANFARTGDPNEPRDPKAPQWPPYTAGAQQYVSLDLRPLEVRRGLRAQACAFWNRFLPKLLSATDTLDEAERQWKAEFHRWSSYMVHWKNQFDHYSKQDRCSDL
QUANTITY: IC50 (nM)
Dear colleague, please return just the value in nM, with no unit written.

Solved cases below.
# MOLECULE, QUANTITY, OBS_VALUE
rows = [
    ("C/C=C1\\[C@H]2C=C(C)C[C@]1(N[C@H]1OC(=O)C3=C4CC(C)(C)C[C@H]4[C@@H](C)[C@@H](O)C[C@]31OC)c1ccc(=O)[nH]c1C2", "IC50", 990),
    ("C/C=C1\\[C@H]2C=C(C)C[C@]1(N[C@H]1OC(=O)C3=C4CC(C)(C)C[C@H]4[C@@H](C)[C@@H](O)C[C@]31O)c1ccc(=O)[nH]c1C2", "IC50", 2170),
    ("C/C=C1\\[C@H]2C=C(C)C[C@]1(NC1OCC3=C4CC(C)(C)C[C@H]4[C@@H](C)[C@H](O)CC31O)c1ccc(=O)[nH]c1C2 (stereo not given in full)", "IC50", 110),
    ("C/C=C1/[C@@H]2Cc3[nH]c(=O)ccc3[C@@]1(N)C[C@]1(C)O[C@H]21", "IC50", 12100),
]

Here's the next entry for you.
# lookup: C/C=C1\[C@H]2C=C(C)C[C@]1(NC1OCC3=C4CC(C)(C)[C@H](O)[C@H]4[C@@H](C)CCC31O)c1ccc(=O)[nH]c1C2 (stereo not given in full) on Acetylcholinesterase (Homo sapiens, UniProt P22303), IC50 = 60
